Compiled literature pKi, tested on Androgen receptor (Homo sapiens, UniProt P10275).
- MEASURED TARGET: Androgen receptor (Homo sapiens, UniProt P10275)
- Sequence (P10275 whole entry): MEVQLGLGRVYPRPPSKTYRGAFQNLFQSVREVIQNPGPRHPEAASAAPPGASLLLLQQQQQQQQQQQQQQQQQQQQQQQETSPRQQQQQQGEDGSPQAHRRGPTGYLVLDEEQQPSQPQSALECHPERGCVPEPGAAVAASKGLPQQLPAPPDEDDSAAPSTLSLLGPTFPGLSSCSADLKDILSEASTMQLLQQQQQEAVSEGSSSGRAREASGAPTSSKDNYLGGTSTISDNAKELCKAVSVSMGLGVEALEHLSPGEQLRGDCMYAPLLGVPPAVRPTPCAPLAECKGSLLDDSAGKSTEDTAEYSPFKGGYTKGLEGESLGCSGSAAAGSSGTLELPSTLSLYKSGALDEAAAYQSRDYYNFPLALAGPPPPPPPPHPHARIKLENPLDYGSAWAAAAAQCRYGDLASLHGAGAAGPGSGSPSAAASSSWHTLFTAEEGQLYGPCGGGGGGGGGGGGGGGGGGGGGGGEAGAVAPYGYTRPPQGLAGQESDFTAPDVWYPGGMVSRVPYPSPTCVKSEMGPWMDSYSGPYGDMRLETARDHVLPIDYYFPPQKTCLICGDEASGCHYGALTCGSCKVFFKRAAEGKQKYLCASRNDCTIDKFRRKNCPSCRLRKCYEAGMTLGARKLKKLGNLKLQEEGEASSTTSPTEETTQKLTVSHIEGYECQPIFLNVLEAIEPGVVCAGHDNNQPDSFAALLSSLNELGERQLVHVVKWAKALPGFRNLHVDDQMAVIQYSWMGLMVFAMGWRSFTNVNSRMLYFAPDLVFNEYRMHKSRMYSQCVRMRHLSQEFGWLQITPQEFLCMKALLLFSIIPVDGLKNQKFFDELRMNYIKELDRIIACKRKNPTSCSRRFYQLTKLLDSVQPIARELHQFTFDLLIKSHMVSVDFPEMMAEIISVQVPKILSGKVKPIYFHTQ
On this scale, pKi is minus log10 of a concentration expressed in M (mol/L).

**Query** Tell us which pKi value is on record for "CCn1cc(-c2ccc(C#N)cc2)c2ccc(NS(C)(=O)=O)cc21"
**Result** 5.59

**Query** Tell us which pKi value is on record for "C[C@@](c1ccc(F)cc1F)(c1c[nH]c2c(NS(C)(=O)=O)cccc12)C1CC1"
**Result** 6.68

**Query** Tell us which pKi value is on record for C#C[C@]1(O)CC[C@H]2[C@@H]3CCC4=CC(=O)CCC4=C3[C@@H](c3ccc(N(C)CCOC4CC[C@@]5(C)[C@@H](C4)C[C@@H](O)[C@@H]4[C@@H]5C[C@H](O)[C@]5(C)[C@@H]([C@H](C)CCC(=O)O)CC[C@@H]45)cc3)C[C@@]21C (stereo in doubt; form 2)
**Result** 8.09

**Query** Tell us which pKi value is on record for "Cn1cc(N(Cc2ccccc2)c2ccc([N+](=O)[O-])cc2)cc1C(N)=O"
**Result** 6.66

**Query** Tell us which pKi value is on record for CCC(CC)(c1ccc(NCC(O)CO)c(C)c1)c1ccc(OCC(O)C(C)(C)C)c(C)c1 (configuration not stated)
**Result** 5.82

**Query** Tell us which pKi value is on record for COc1c(O)ccc2c1-c1ccc3c(c1/C(=C/c1sccc1C(O)C(F)(F)F)O2)C(C)=CC(C)(C)N3 (racemic)
**Result** 5.72

**Query** Tell us which pKi value is on record for "CC1=CC(C)(C)Nc2ccc3c(c21)/C(=C/c1ccccc1)Oc1ccccc1-3"
**Result** 5.58

----------
- MEASURED TARGET: Androgen receptor (Homo sapiens)
- Sequence (P10275 whole entry): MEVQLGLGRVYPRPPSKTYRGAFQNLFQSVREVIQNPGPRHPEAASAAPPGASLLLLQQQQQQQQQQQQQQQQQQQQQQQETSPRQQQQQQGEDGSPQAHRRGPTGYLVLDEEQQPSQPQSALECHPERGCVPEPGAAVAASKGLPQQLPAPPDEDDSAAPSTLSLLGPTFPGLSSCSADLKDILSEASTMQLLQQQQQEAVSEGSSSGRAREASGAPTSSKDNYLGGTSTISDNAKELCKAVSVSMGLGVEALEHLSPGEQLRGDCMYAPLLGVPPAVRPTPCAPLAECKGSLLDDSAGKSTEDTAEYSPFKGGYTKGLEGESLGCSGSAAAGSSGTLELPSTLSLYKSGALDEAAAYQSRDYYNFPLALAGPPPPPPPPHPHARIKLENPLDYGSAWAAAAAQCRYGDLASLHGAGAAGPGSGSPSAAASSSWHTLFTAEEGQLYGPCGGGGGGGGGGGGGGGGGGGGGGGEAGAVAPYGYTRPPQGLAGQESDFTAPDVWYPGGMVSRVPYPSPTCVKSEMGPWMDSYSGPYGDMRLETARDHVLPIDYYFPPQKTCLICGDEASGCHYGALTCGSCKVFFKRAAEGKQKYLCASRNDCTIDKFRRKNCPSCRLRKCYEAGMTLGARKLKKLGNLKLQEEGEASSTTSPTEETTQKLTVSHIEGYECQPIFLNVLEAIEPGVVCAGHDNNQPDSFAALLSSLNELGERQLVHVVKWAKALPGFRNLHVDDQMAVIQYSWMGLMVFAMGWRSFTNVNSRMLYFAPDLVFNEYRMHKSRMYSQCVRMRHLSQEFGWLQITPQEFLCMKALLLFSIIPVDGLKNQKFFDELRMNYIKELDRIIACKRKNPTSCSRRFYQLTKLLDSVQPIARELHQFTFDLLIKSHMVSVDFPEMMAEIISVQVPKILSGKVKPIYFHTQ
Compiled literature Ki, tested on Androgen receptor (Homo sapiens).
Note: unit nM is implicit; provide only the numeric part.

**Query** Tell us which Ki value is on record for C#C[C@]1(O)CC[C@H]2[C@@H]3CCC4=CC(=O)CCC4=C3[C@@H](c3ccc(N(C)CCNC(=O)O[C@@H]4C[C@@H]5CC(O)CC[C@]5(C)[C@H]5C[C@H](O)[C@]6(C)[C@@H]([C@H](C)CCC(=O)O)CC[C@H]6[C@H]45)cc3)C[C@@]21C (stereo partly specified)
**Result** 18

**Query** Tell us which Ki value is on record for C#C[C@]1(O)CC[C@H]2[C@@H]3CCC4=CC(=O)CCC4=C3[C@@H](c3ccc(N(C)CCNC(=O)N(C)C4CC[C@@]5(C)[C@@H](C4)C[C@@H](O)[C@@H]4[C@@H]5C[C@H](O)[C@]5(C)[C@@H]([C@H](C)CCC(=O)O)CC[C@@H]45)cc3)C[C@@]21C (stereo partly specified)
**Result** 16

**Query** Tell us which Ki value is on record for "CC(C)(C(=O)Nc1nncs1)[C@H]1c2ccccc2Oc2cc(O)ccc21"
**Result** 696

**Query** Tell us which Ki value is on record for "COc1c(O)ccc2c1-c1ccc3c(c1/C(=C/c1ccc(F)cc1CO)O2)C(C)=CC(C)(C)N3"
**Result** 700

**Query** Tell us which Ki value is on record for "CC/C(=C1/c2ccccc2COc2ccccc21)c1cccc(NS(C)(=O)=O)c1"
**Result** 9.74

----------
- MEASURED TARGET: Androgen receptor (Homo sapiens)
- Sequence (P10275 whole entry): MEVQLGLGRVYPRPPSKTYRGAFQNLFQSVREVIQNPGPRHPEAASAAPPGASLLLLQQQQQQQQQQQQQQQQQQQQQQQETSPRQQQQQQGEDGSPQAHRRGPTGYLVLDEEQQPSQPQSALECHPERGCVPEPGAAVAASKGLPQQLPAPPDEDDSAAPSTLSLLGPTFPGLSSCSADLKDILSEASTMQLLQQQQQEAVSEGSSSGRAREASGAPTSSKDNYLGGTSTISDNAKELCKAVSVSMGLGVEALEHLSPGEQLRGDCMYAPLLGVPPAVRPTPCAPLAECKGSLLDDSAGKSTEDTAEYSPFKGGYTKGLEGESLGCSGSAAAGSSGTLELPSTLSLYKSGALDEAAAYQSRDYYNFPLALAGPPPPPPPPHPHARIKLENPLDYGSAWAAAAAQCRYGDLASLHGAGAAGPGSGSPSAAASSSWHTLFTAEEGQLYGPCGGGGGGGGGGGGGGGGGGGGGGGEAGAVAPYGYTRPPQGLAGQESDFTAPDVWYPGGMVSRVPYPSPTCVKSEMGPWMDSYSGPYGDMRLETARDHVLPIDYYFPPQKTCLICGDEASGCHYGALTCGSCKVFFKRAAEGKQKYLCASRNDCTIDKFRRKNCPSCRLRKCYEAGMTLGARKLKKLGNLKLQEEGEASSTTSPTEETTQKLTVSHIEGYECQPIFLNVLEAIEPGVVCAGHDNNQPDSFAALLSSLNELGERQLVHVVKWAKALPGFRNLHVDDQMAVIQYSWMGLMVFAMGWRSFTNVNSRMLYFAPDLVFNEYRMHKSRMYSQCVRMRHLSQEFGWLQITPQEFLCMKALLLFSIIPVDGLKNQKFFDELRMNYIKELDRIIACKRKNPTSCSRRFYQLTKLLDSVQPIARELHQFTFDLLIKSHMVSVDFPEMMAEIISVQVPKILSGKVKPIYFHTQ
pKi: −log10 of the molar value.
Compiled literature pKi, tested on Androgen receptor (Homo sapiens).
Give rule met when the value for pKi is at least 6. Give rule not met when it is less.

**Query** API: above_or_equal(metric=pKi, cutoff=6) for item "COc1c(O)ccc2c1-c1ccc3c(c1/C(=C/c1sccc1/C(C)=N/O)O2)C(C)=CC(C)(C)N3"
**Result** rule met

**Query** API: above_or_equal(metric=pKi, cutoff=6) for item "CC(C)(C(=O)Nc1nncs1)[C@@H]1c2ccc(-c3ccc(C(=O)N4CCOCC4)cc3)nc2Oc2c(F)cccc21"
**Result** rule not met

**Query** API: above_or_equal(metric=pKi, cutoff=6) for item "CCC(CC)(c1ccc(NCCC(C)(C)O)c(C)c1)c1ccc(OCC(=O)C(C)(C)C)c(C)c1"
**Result** rule not met

**Query** API: above_or_equal(metric=pKi, cutoff=6) for item "Cc1cc(=O)[nH]c2ccc3c4c(C(=O)OC(C)(C)C)cccc4oc(=O)c3c12"
**Result** rule met

**Query** API: above_or_equal(metric=pKi, cutoff=6) for item "CCc1ccccc1/C=C1\Oc2ccc(F)cc2-c2ccc3c(c21)C(C)=CC(C)(C)N3"
**Result** rule not met

**Query** API: above_or_equal(metric=pKi, cutoff=6) for item C=CCC1Oc2cccc(C#N)c2-c2ccc3c(c21)C(C)=CC(C)(C)N3 (centres undefined)
**Result** rule not met

**Query** API: above_or_equal(metric=pKi, cutoff=6) for item O=C1[C@@H]2C3CCC(C3)[C@@H]2C(=O)N1c1cccc(C(F)(F)F)c1 (stereo in doubt; 12)
**Result** rule met

**Query** API: above_or_equal(metric=pKi, cutoff=6) for item "Cc1cc(-c2cn(C(C)C)c3cc(NS(C)(=O)=O)ccc23)ccc1C#N"
**Result** rule met

**Query** API: above_or_equal(metric=pKi, cutoff=6) for item C=CCC1Oc2cccc(OC)c2-c2ccc3[nH]c(=O)cc(C)c3c21 (centres undefined)
**Result** rule not met

**Query** API: above_or_equal(metric=pKi, cutoff=6) for item COc1cccc2c1-c1ccc3c(c1C(c1cccc(OCSC)c1)O2)C(C)=CC(C)(C)N3 (centres undefined)
**Result** rule not met

**Query** API: above_or_equal(metric=pKi, cutoff=6) for item CC12CC(C)(C(=O)Nc3nccs3)C(c3ccccc31)c1ccccc12 (stereo in doubt; 17a)
**Result** rule not met

**Query** API: above_or_equal(metric=pKi, cutoff=6) for item "C/C(=C1/c2ccccc2COc2ccccc21)c1cccc(NS(C)(=O)=O)c1"
**Result** rule met
